system: Renin mRNA in As4.1 cells; test: Renin mRNA in As4.1 cells transfected with pcDNA-hVDR (real-time RT-PCR); format: cell-based
Binned IC50; ranges: group A: < 0.3 nM; group B: ≥ 0.3 nM and < 2 nM; group C: ≥ 2 nM

Completed entries (count: 8):
compound	group
C=C1[C@H](O)CC(=C/C=C2\CCC[C@]3(C)[C@@H]([C@H](C)COc4ccccc4)CC[C@@H]23)C[C@H]1O	group A
C=C1[C@H](CO)C/C(=C\C=C2/CCC[C@]3(C)[C@@H]([C@H](C)CCCC(C)(C)O)CC[C@@H]23)C[C@H]1O	group C
C=C1/C(=C\C=C2/CCC[C@]3(C)[C@@H]([C@H](C)CCCC(C)(C)O)CC[C@@H]23)C[C@@H](O)C[C@@H]1O [Calcitriol, 1,25-dihydroxyvitamin D3, reference compound]	group B
C=C1[C@H](O)CC(=C/C=C2\CCC[C@]3(C)[C@@H]([C@@H](C)COC(=O)C(C)(C)C)CC[C@@H]23)C[C@H]1O	group B
C=C1[C@H](O)CC(=C/C=C2\CCC[C@]3(C)[C@@H]([C@H](C)COC(=O)C(C)(C)CC)CC[C@@H]23)C[C@H]1O	group C
C=C1/C(=C\C=C2/CCC[C@]3(C)[C@@H]([C@H](C)C(C[C@@H](C)C(C)(C)OC)OC)CC[C@@H]23)C[C@@H](O)C[C@@H]1O (stereo partly shown)	group C
C=C1[C@H](CO)C/C(=C\C=C2/CCC[C@]3(C)[C@@H]([C@H](C)OCCC(C)(C)O)CC[C@@H]23)C[C@H]1O	group C
COC(C[C@@H](C)C(C)(C)OC)[C@@H](C)[C@H]1CC[C@H]2/C(=C/C=C3C[C@@H](O)C[C@H](O)C3)CCC[C@]12C (stereo partly shown)	group A

Form field 'band' for C=C1[C@H](O)CC(=C/C=C2\CCC[C@]3(C)[C@@H]([C@H](C)COC(=O)C(C)(C)OC(C)=O)CC[C@@H]23)C[C@H]1O
group C

Form field 'band' for C[C@H](/C=C/[C@H](C)C(C)(C)O)[C@H]1CC[C@H]2/C(=C/C=C3C[C@@H](O)C[C@H](O)C3)CCC[C@]12C [Paricalcitol, paricalcitol, reference compound]
group B

Form field 'band' for C[C@H](CC[C@@H](C)C(C)(C)O)[C@H]1CC[C@H]2/C(=C/C=C3C[C@@H](O)C[C@H](O)C3)CCC[C@]12C
group A

Form field 'band' for C=C1[C@H](O)C/C(=C/C=C2\CCC[C@]3(C)[C@@H]([C@H](C)CCCC(C)(C)O)CC[C@@H]23)C[C@@H]1F
group B

Form field 'band' for C=C1[C@H](O)CC(=C/C=C2\CCC[C@]3(C)[C@@H]([C@H](C)CO)CC[C@@H]23)C[C@H]1O
group B

Form field 'band' for C=C1[C@H](O)CC(=C/C=C2\CCC[C@]3(C)[C@@H]([C@H](C)CC[C@H](C)C(C)C)CC[C@@H]23)C[C@H]1O
group A

Form field 'band' for C=C1[C@H](O)CC(=C/C=C2\CCC[C@]3(C)[C@@H]([C@H](C)COC(=O)NC(C)(C)C)CC[C@@H]23)C[C@H]1O
group C

Form field 'band' for C=C1[C@H](O)C/C(=C\C=C2/CCC[C@]3(C)[C@@H]([C@H](C)CCCC(C)(C)O)CC[C@@H]23)C[C@@H]1F
group A

Form field 'band' for C=C1[C@H](O)CC(=C/C=C2\CCC[C@]3(C)[C@@H]([C@H](C)COC(=O)C(C)(C)O)CC[C@@H]23)C[C@H]1O
group A
